Measured Kd, listed per entry for reference.
# TARGET: human ApoC3 (human)
# Sequence (chain, as listed by the source): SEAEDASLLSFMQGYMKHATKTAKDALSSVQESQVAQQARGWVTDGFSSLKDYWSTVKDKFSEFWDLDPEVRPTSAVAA
# ASSAY TEXT: SPR pH 7.4, antibody immobilized
Write it as a number; the unit nM goes unstated.

* mAb3 (antibody, V domains shown) VH: QLVESGGGLVQPGGSLRLSCAASGFTFGTYSMRWVRQAPGKGLEWVSSIHTEGGGTAYRDSVKGRFTISRDNAKNTLYLQMNSLRAEDTAIYYCVIAGYSDWGQGTLVTVSS VL: DIVMTQSPLSLPVTPGESASISCKTSQGLVHSDGKTYFYWFLQKPGQSPQQLIYQVSNRASGVPDRFTGSGSGTDFTLKISRVKAEDAGVYYCAHGTYYPHTFGQGTRLEIK | 174
* mAb19 (antibody, V domains shown) VH: QLVESGGGLVQPGGSLRLSCAASGFTFSTYSMRWVRQAPGKGLEWVSSIHTDAGGTAYRDSVKGRFTISRDNAKNTLYLQMNNLRPEDTAVYYCVIAGYSDWGQGTLVTVSS VL: DIVMTQSPGSLSVTPGEPASISCKTSQGLVHSGGKTYFYWFLQKPGQSPQQLIYQVSNRASGVPDRFTGSGSGTDFTLKISGVEAEDAGVYYCAQGTYYPHTFGQGTRLEIK | 35.5

As a next step, examine the binder that follows.
What the record says about mAb9 (antibody, V domains shown) VH: QLVESGGGLVQPGGSLRLSCAASGFTFSTYSMRWVRQAPGKGLEWVSSIHTDAGGTAYRDSVKGRFTISRDNAKNTLYLQMNNLRAEDTAVYYCVIAGYSDWGQGTLVTVSS VL: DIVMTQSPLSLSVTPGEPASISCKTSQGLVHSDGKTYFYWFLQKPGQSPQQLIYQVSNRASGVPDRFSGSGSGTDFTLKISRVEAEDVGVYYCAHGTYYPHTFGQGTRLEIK : Kd is 232

Where do these numbers come from? They come from patent US10538583.
